- method: thermal shift assay (TSA)
- Format: physicochemical
- cond: pH 7; C0101517A01 2nd round sequence optimization variants
- Description: TSA was carried out with 5 μl of purified monovalent Nanobodies in essence according to Ericsson et al. (2006 Anals of Biochemistry, 357: 289-298). The thermal stability of the wildtype anti-MMP13 Nanobodies was investigated in a thermal shift assay (TSA).
endpoint.name: TSA Tm (° C.)@ pH 7 (°C)
Report only the number, with the unit °C understood.

QUERY: Note down TSA Tm (° C.)@ pH 7 recorded for C010100650: C0101517A01 sequence optimization variant, mutations N100bS, N101V (protein) VHH: DVQLVESGGGLVQPGGSLRLSCAASGRTFSSYAMGWFRQAPGKEREFVAAISWSGGSTYYADSVKGRFTISRDNSKNTVYLQMNSLRPEDTAVYYCTAALAVYGPSRYRYGPVGEYVYWGQGTLVTVSS
RESULT: 81
